Experiment: Human HepG2 cell viability assay in 384 well format
Type: toxicity, cell-based
Design: dose 125 nL, time 70.5 hour; concentration not given beside the values
Settings: HepG2 cells, read-out: Inhibition
For each of the compounds below, state its cytotoxicity at 70.5 h.
Report the figure in % without appending any unit label.

cytotoxicity at 70.5 h for CCN(CC1CCOC1)C(=O)c1cc(F)ccc1N1CCN(C)CC1 (stereo unspecified) is 46

cytotoxicity at 70.5 h for N#Cc1ccc(CN2C(=O)c3ccccc3CS2(=O)=O)c(F)c1 is 2.45

cytotoxicity at 70.5 h for Cc1ccc(NC2CCN(C(=O)COC3CCCCC3)CC2)nn1 is 20.5

cytotoxicity at 70.5 h for CCCN1CCC(CC(=O)N2CC(C)(C)[C@@](C)(O)C2)CC1 is -2.11

cytotoxicity at 70.5 h for Cc1cccc(C(=O)N2CCC3(CC2)CC(c2ccccc2)C(=O)N3)c1 (stereo unspecified) is -0.963

cytotoxicity at 70.5 h for COc1ccc(OCCN2CCCN(Cc3noc(C)n3)CC2)cc1 is 30.5

* * *

Assay: Human HepG2 cell viability assay in 384 well format
Assay type: toxicity, cell-based
Parameters: dose 125 nL, time 70.5 hour; concentration not given beside the values
Details: HepG2 cells, read-out: Inhibition
parameter: cytotoxicity at 70.5 h (%)
Report the figure in % without appending any unit label.

cytotoxicity at 70.5 h for CS(=O)(=O)NC1CCN(CCOCc2ccccc2)CC1 is -6.45

cytotoxicity at 70.5 h for CNc1cc(C)nc(N2C[C@@H](C(=O)O)[C@H](C3CC3)C2)n1 is -1.21

cytotoxicity at 70.5 h for COc1ccc2[nH]cc(CCNC(=O)C3CCCN(C(C)=O)C3)c2c1 (stereo unspecified) is -9.73

cytotoxicity at 70.5 h for CC(C)CN1CCC2(CC1)C(=O)Nc1ccc(C(=O)N(C)C)cc12 is -10.1

cytotoxicity at 70.5 h for O=c1[nH]cnc2c1CCN(S(=O)(=O)c1cccc(OC(F)(F)F)c1)C2 is -5.76

cytotoxicity at 70.5 h for Cc1ccc([C@]2(O)CC[C@H]3CN(Cc4cccc(Cl)c4Cl)C[C@H]32)nc1 is 22.9

cytotoxicity at 70.5 h for Cc1cc(C)c2cc(CNCCCN3CCOCC3)c(=O)[nH]c2c1 is -7.01

cytotoxicity at 70.5 h for c1ccc2oc(CCCN3CCCC3c3noc(C4CC4)n3)nc2c1 (stereo unspecified) is 17.9

cytotoxicity at 70.5 h for Cc1ccc(C(=O)N2C[C@@H]3OCCN(CC4CCCC4)[C@@H]3C2)cn1 is -6.94

cytotoxicity at 70.5 h for O=C(CN1C(=O)CCC1=O)N1Cc2cncnc2C1 is -2.85

cytotoxicity at 70.5 h for Cc1noc(C)c1-c1cncc(C2CCCN2Cc2ccncc2)n1 (stereo unspecified) is -16.4

* * *

Assay: Human HepG2 cell viability assay in 384 well format
Type: toxicity, cell-based
Set-up: dose 125 nL, time 70.5 hour; concentration not given beside the values
Settings: HepG2 cells, read-out: Inhibition
For each of the molecules below, state its cytotoxicity at 70.5 h.
Report the figure in % without appending any unit label.

cytotoxicity at 70.5 h for CCOCCn1nc(C)cc1C(=O)N1CC[C@@](O)(COC)C(C)(C)C1 is 25.9

cytotoxicity at 70.5 h for O=C(N1CCCC1)N1CCC[C@]2(C[C@@H](Oc3ncccc3F)CO2)C1 is -4.8

cytotoxicity at 70.5 h for CCC(=O)N1CCc2nc3cc(OC)c(OC)cc3c(=O)n2CC1 is 29.2

cytotoxicity at 70.5 h for O=C(O)CCn1ccc(=O)c2cc(F)ccc21 is -11.9

cytotoxicity at 70.5 h for COc1ccc(N2CCN(C(=O)CCn3nnnc3C)CC2(C)C)cc1 is 14

cytotoxicity at 70.5 h for COc1ccccc1CN1CCC(c2nn(CCN)c3nccnc23)C1 (configuration not stated) is -0.747

cytotoxicity at 70.5 h for Cn1cc(C(=O)CC2CCCN2C(=O)c2ccc(Cl)cn2)cn1 (configuration not stated) is -8.95

cytotoxicity at 70.5 h for CC(C)c1nccn1CCCNC(=O)c1ccc(-c2cn[nH]c2)nc1 is -3.19

cytotoxicity at 70.5 h for Cc1nc(CC(=O)N2CCC(Nc3cccnn3)CC2)cs1 is -6.73

cytotoxicity at 70.5 h for CCOc1cc2c(cc1C(=O)O)CCC2 is 11.4

cytotoxicity at 70.5 h for CCOc1ncccc1NC(=O)Nc1c(C)nn(C(C)C)c1C is -4.11

cytotoxicity at 70.5 h for Cc1oc(C)c(C(=O)NCc2ccccc2CN(C)C)c1C is 16.8

* * *

Assay: Human HepG2 cell viability assay in 384 well format
Assay type: toxicity, cell-based
Set-up: dose 125 nL, time 70.5 hour; concentration not given beside the values
Details: HepG2 cells, read-out: Inhibition
parameter: cytotoxicity at 70.5 h (%)
Report the figure in % without appending any unit label.

cytotoxicity at 70.5 h for CSc1cccc(NC(=O)CCC(=O)Nc2nccs2)c1 is 14.4

cytotoxicity at 70.5 h for CC1=C(C(=O)NCCc2n[nH]c3c2CCCC3)C(C)NC(=O)N1 (centres undefined) is 14.6

cytotoxicity at 70.5 h for CCC(=O)NC(Cc1cc(N(C)C)nc(C2CC2)n1)c1ccccc1 (centres undefined) is -2.39

cytotoxicity at 70.5 h for CC(C)c1ncncc1C(=O)NCCN1CCOCC1 is 1.2

cytotoxicity at 70.5 h for CC(C)(NCc1cccc(C#N)c1)c1ccc2c(c1)OCO2 is -9.81

cytotoxicity at 70.5 h for COc1cc(NCCNC(=O)c2cscc2C)cc(OC)c1 is -2.4

cytotoxicity at 70.5 h for CN(C)C(=O)C1CN(Cc2cccs2)CCN(S(C)(=O)=O)C1 (centres undefined) is -5.12

cytotoxicity at 70.5 h for C=Cn1ncc(CN2C[C@@H]3C[C@@H](O)CN3C[C@@H]2Cc2ccccc2)c1C is 1.04

cytotoxicity at 70.5 h for COc1ccc(OC)c(-c2cc(C(=O)NCC3(CO)CC3)n(C)n2)c1 is -5.05

cytotoxicity at 70.5 h for Cn1ncc2c(N3CCS(=O)(=O)CC3)nc(-c3cccnc3)nc21 is 6.33

cytotoxicity at 70.5 h for COc1ccc2[nH]c(C[C@@H]3C[C@@H](C(C)C)[C@H](CN(C)C)C=C3C)nc2c1 is -3.19

cytotoxicity at 70.5 h for O=C(N1CCOCC1)n1cnc2ccccc21 is -11.5

cytotoxicity at 70.5 h for Cn1cc(C(=O)N[C@@H]2CN(Cc3cccs3)[C@@H]3CCCO[C@@H]32)cn1 is -14.7

cytotoxicity at 70.5 h for COC(=O)CC(NC(=O)c1cc(OC)c2c(c1)OCCO2)c1cccs1 (centres undefined) is -9.89

cytotoxicity at 70.5 h for Cc1ccc(C(=O)N2CCC3(CCC(=O)N(CC(N)=O)C3)CC2)cc1 is -8.05

cytotoxicity at 70.5 h for CC(NC(=O)NCC(F)(F)F)c1nncn1C (centres undefined) is 29.7

cytotoxicity at 70.5 h for CC(=O)N1CCCc2sc(C(=O)NC3CC3)nc21 is -6.9

cytotoxicity at 70.5 h for CCCC1C=CCN1C(=O)c1cc(COc2ccc3c(c2)OCO3)[nH]n1 (centres undefined) is -11

cytotoxicity at 70.5 h for CC(N(C)Cc1nc2c(cnn2C)c(=O)[nH]1)C(C)(C)C (centres undefined) is 21

cytotoxicity at 70.5 h for CN(Cc1cccc(Cl)c1)Cc1nnsc1Cl is -5.2

cytotoxicity at 70.5 h for Cn1cnc2c1CCN(Cc1cccc(OCC(N)=O)c1)C2 is -9.69

cytotoxicity at 70.5 h for CC(O)CN1CCN(C(=O)c2cccc(CC#N)c2)CC1 (centres undefined) is 12.7

cytotoxicity at 70.5 h for O=C(CC1CC1)N1CCC2(CC1)CN(c1ncc(F)cn1)CCO2 is -9.05

cytotoxicity at 70.5 h for Cc1nc2n(n1)CC(NCC(=O)Nc1cc(C)on1)CC2 (centres undefined) is -6.78

* * *

For each of the compounds below, state its cytotoxicity at 70.5 h.
Assay: Human HepG2 cell viability assay in 384 well format
Assay type: toxicity, cell-based
Set-up: dose 125 nL, time 70.5 hour; concentration not given beside the values
Details: HepG2 cells, read-out: Inhibition
Report the figure in % without appending any unit label.

cytotoxicity at 70.5 h for CC(C)(C)n1ncc2c1CCCC2NCc1cccc2c1OCO2 (stereo not given) is -1.84

cytotoxicity at 70.5 h for O=C(N[C@H]1CN(c2ccncc2)C[C@@H]1C1CC1)C1CCOCC1 is -3.12

cytotoxicity at 70.5 h for CNC(=O)[C@@]12CCC3(CCN(C(C)=O)CC3)[C@@H]1CN(S(C)(=O)=O)C2 is -4.49

cytotoxicity at 70.5 h for CCOCc1nc2c(c(NC(CC)c3ccncc3)n1)CCNCC2 (stereo not given) is 1.72

cytotoxicity at 70.5 h for COc1ccc(CN2C[C@@H]3CN(C(=O)[C@H]4CCCO4)C[C@@H]3C2=O)cc1 is -4.12

Ref: ChEMBL document CHEMBL3507680
